Molecular target: FGFR3 (UniProt P22607)
Sequence (P22607 whole entry, looked up): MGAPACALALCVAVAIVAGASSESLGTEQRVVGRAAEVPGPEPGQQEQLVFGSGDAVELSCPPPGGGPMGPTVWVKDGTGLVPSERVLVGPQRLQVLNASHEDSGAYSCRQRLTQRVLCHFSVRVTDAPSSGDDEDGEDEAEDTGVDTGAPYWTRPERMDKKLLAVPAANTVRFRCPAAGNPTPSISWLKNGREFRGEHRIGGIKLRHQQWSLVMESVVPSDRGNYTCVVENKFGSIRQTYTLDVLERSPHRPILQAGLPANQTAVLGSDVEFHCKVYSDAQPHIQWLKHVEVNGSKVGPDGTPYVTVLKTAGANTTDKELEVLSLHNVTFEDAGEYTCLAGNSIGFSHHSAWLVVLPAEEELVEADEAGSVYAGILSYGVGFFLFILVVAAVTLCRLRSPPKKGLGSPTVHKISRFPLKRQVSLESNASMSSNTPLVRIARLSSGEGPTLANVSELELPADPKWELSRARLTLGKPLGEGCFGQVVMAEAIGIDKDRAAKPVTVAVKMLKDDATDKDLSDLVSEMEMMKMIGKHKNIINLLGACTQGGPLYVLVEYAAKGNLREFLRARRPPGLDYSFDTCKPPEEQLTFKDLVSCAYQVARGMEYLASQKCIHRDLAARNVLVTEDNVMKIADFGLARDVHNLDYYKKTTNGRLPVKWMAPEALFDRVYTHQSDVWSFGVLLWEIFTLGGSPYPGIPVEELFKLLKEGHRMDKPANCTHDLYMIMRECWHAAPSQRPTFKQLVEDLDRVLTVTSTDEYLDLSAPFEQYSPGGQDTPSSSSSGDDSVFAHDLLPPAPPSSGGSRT
Assay: phosphorylation enrichment, bacterial display (enrichment ratio); higher = better substrate or ligand; peptides without Tyr show the background
endpoint: phosphorylation enrichment
Reply: number alone, nothing else.

Here's what some known entries look like.
[[record]]
construct_sequence = "DSFWSYCNAVA [SLC20A2_Y436_S434W_YF]"
endpoint = "phosphorylation enrichment"
endpoint_value = 0.805

[[record]]
construct_sequence = "CTTIQYNFMCN [TP53_Y234_H233Q_YF]"
endpoint = "phosphorylation enrichment"
endpoint_value = 0.689

[[record]]
construct_sequence = "RKGGSYSQAAS [HLA-A_Y344_T345S]"
endpoint = "phosphorylation enrichment"
endpoint_value = 0.567


Lookup: For the sequence PRQRRYVYYYS [PTEN_Y174_S170R] , give its reported phosphorylation enrichment.
Found: 0.929

====

Molecular target: SHP2-C SH2
Assay: SH2 binding enrichment of the phosphorylated peptide, bacterial display (enrichment ratio); higher = better substrate or ligand; peptides without Tyr show the background
endpoint: SH2 binding enrichment
Returns: the value as a bare number; no unit string appended.

Lookup: Give the reported value of SH2 binding enrichment for this record: LICRRYLVMQR [IL3RA_Y328_V323L]
Found: 0.675

Lookup: Hello, please tell me recorded SH2 binding enrichment for this one: TRSFDYTEGGD [FGF7_Y58_M59T_YF]
Found: 0.494

====

Molecular target: Grb2 SH2 (UniProt P62993)
Sequence (P62993 whole entry, looked up): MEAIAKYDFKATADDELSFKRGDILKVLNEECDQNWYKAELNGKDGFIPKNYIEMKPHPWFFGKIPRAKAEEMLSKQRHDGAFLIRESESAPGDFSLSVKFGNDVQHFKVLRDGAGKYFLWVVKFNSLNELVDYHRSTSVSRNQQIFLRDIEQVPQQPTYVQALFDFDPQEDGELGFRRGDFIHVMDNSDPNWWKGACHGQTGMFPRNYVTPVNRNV
Assay: SH2 binding enrichment of the phosphorylated peptide, bacterial display (enrichment ratio); higher = better substrate or ligand; peptides without Tyr show the background
Cut-off 0.8 on SH2 binding enrichment, inclusive. At or above means criterion met; below means criterion not met.

[[record]]
construct_sequence = "DMGAQYAAASR [ARID1B_Y483_P488R]"
discrete_label = "criterion not met"

[[record]]
construct_sequence = "ESMNTYLQTSP [NAT1_Y208]"
discrete_label = "criterion not met"

[[record]]
construct_sequence = "ESKAGYRVPRS [CLDN7_Y195]"
discrete_label = "criterion met"

[[record]]
construct_sequence = "AYGNLYGSRKQ [YIPF7_Y59]"
discrete_label = "criterion not met"

[[record]]
construct_sequence = "IFHENYNAGTF [CFI_Y421_YF]"
discrete_label = "criterion met"

[[record]]
construct_sequence = "IPTPAYQSSPA [PDCD6IP_Y727]"
discrete_label = "criterion not met"


Next item in the queue.
Lookup: Confirm if SH2 binding enrichment reported for the sequence EVKEAYMGSVL [ACAT1_Y90_N93S] is 0.8 or above.
Found: criterion met

====

Molecular target: Grb2 SH2 (UniProt P62993)
Experiment: SH2 binding enrichment of the phosphorylated peptide, bacterial display (enrichment ratio); higher = better substrate or ligand; peptides without Tyr show the background
Could you label it label 1 if measured SH2 binding enrichment is 1 or higher, and label 0 otherwise?

Solved entries (count: 7):
[[record]]
construct_sequence = "VIVRMYDFHVL [RPF2_Y109_G106V_YF]"
discrete_label = "label 1"

[[record]]
construct_sequence = "DKATEYSQYMR [MAX_Y70_I71S]"
discrete_label = "label 0"

[[record]]
construct_sequence = "QRVLLYVQRET [GRHL3_Y518_R520Q]"
discrete_label = "label 1"

[[record]]
construct_sequence = "IRTIDYRFTVS [IDS_Y497_W502S_YF]"
discrete_label = "label 1"

[[record]]
construct_sequence = "NPQKSCFIRLY [WAS_Y83_Y83C]"
discrete_label = "label 0"

[[record]]
construct_sequence = "SDVCMYRKNIF [SYNE2_Y570_YF]"
discrete_label = "label 0"

[[record]]
construct_sequence = "VTGWGYRKLRE [F11_Y521_D526E]"
discrete_label = "label 0"


Lookup: Entry CTTTHYNYMCN [TP53_Y234_I232T] : is its SH2 binding enrichment no less than 1?
Found: label 0

====

Molecular target: EPHB2 (UniProt P29323)
Sequence (P29323 whole entry, looked up): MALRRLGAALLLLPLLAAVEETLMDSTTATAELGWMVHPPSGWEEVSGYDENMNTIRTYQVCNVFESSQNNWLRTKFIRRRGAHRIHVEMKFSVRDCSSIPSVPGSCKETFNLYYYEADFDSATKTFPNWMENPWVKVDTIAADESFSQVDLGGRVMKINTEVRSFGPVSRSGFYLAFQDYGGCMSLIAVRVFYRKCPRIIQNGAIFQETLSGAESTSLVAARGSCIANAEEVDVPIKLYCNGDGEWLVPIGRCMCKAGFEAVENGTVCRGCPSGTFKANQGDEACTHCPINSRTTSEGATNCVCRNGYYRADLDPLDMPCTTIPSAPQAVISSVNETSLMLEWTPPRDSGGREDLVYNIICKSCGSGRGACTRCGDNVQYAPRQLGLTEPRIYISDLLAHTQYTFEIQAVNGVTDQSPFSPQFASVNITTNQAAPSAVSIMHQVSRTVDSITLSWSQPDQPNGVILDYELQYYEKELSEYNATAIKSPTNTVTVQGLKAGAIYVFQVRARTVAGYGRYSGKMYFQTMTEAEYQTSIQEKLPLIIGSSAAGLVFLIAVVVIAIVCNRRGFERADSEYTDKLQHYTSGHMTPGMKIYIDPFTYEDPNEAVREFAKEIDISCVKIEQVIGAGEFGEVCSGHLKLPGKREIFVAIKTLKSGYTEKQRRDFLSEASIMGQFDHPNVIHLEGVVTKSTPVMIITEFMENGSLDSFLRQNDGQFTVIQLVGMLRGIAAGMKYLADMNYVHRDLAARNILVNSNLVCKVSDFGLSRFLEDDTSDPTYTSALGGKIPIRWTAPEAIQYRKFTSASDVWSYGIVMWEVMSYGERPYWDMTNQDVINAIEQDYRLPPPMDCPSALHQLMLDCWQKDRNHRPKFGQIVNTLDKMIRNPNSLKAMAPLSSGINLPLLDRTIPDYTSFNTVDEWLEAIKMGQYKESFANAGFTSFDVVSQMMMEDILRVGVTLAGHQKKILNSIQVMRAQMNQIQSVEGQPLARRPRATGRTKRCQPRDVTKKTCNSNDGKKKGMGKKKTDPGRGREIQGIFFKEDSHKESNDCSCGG
Assay: phosphorylation enrichment, bacterial display (enrichment ratio); higher = better substrate or ligand; peptides without Tyr show the background
Reported phosphorylation enrichment values follow for various sequences
Keep the answer to the number alone.

[[record]]
construct_sequence = "KREPQYSSHSS [SIPA1L3_Y1265_G1261R]"
endpoint_value = 0.306

[[record]]
construct_sequence = "VTQEQYELYCE [CBL_Y368]"
endpoint_value = 0.71

[[record]]
construct_sequence = "LSPNMYNSKLW [TARSL2_Y457]"
endpoint_value = 0.753

[[record]]
construct_sequence = "LSPNMYNSKFW [TARSL2_Y457_L461F]"
endpoint_value = 1.1

[[record]]
construct_sequence = "DEDYLYREELA [POR_Y575]"
endpoint_value = 0.647


Lookup: Fetch value of phosphorylation enrichment on EPHB2 (UniProt P29323) for VYSSDYFSFVL [USP24_Y2138] .
Found: 3.95

Lookup: Look up and report phosphorylation enrichment, with EPHB2 (UniProt P29323) as system, for TVHPGYGFLSE [PCCA_Y143_A138T]
Found: 0.467

Lookup: Return reported phosphorylation enrichment for target or system EPHB2 (UniProt P29323), item FGSRLYKFAFK [FANCD2_Y458_L456R_YF] .
Found: 0.557

Lookup: Recall the reported phosphorylation enrichment of GRVFVYRLSEQ [ITGAE_Y551_YF] when tested on EPHB2 (UniProt P29323).
Found: 0.511

Lookup: Answer briefly: phosphorylation enrichment recorded on EPHB2 (UniProt P29323) for NVVNEYSSELE [FGB_Y172]
Found: 0.627

Lookup: Write down the reported phosphorylation enrichment (system: EPHB2 (UniProt P29323)) of WQQQSYLYSGI [CTNNB1_Y30_D32Y]
Found: 5.03

Lookup: Answer with phosphorylation enrichment of RSSNTYTLTDV [ALCAM_Y298] measured for EPHB2 (UniProt P29323).
Found: 0.561

Lookup: System EPHB2 (UniProt P29323). Read-out phosphorylation enrichment. Item DYYDLYGGKKF [PTPN11_Y66_E69K] . Report value.
Found: 1.22

Lookup: GET phosphorylation enrichment where system = EPHB2 (UniProt P29323) and item = QRIHNYFEHRF [HCN4_Y554_D553N_YF]
Found: 0.443

====

Attribute: phosphorylation enrichment
Target: FGFR3 (UniProt P22607)
Assay: phosphorylation enrichment, bacterial display (enrichment ratio); higher = better substrate or ligand; peptides without Tyr show the background
API note: the answer field is a bare number with no unit suffix.

[[record]]
construct_sequence = "NAGAFYALSTL [FLVCR2_Y325]"
endpoint = "phosphorylation enrichment"
endpoint_value = 0.649

[[record]]
construct_sequence = "LFEDCYLLGTS [ASS1_Y87_R86C_YF]"
endpoint = "phosphorylation enrichment"
endpoint_value = 1.15

[[record]]
construct_sequence = "RHLREYQDLLN [DES_Y388]"
endpoint = "phosphorylation enrichment"
endpoint_value = 0.641


// below: phosphorylation enrichment requested for another sequence
Lookup: Indicate its recorded phosphorylation enrichment; the sequence in question is KLSHLYQDHMQ [WNT5A_Y86_C83S]
Found: 0.703

====

Parameter: SH2 binding enrichment. Scope: all listed entries.
Target: SHP2-C SH2
Assay: SH2 binding enrichment of the phosphorylated peptide, bacterial display (enrichment ratio); higher = better substrate or ligand; peptides without Tyr show the background
The reply should be a number, written without any unit.

Some sequences with known SH2 binding enrichment results, for comparison:
[[record]]
construct_sequence = "VHNLNYFKKTT [FGFR3_Y647_D646N_YF]"
endpoint_value = 0.678

[[record]]
construct_sequence = "PVQAAYPKVVA [HBB_Y131_Q132P]"
endpoint_value = 0.697

[[record]]
construct_sequence = "MKSIKYMDKEI [CCDC60_Y41]"
endpoint_value = 0.525

[[record]]
construct_sequence = "IWDLKYTIENP [SND1_Y178_R174W]"
endpoint_value = 0.755

[[record]]
construct_sequence = "MTRDIYETDFF [INSR_Y1185_YF]"
endpoint_value = 0.565

[[record]]
construct_sequence = "FMKEPYIQSRF [HIPK4_Y175_V171M_YF]"
endpoint_value = 0.687

[[record]]
construct_sequence = "LERYIYNREEL [HLA-DPB1_Y59_F64L]"
endpoint_value = 0.709

[[record]]
construct_sequence = "ILQSMYGCDVG [HLA-B_Y123_T118I]"
endpoint_value = 0.566


Lookup: State, for SHP2-C SH2, measured SH2 binding enrichment of the sequence listed here: QTSTDYDIRFY [CSNK2A1_Y131_L128S]
Found: 0.625
